# experiment: PK of Compound (A1) after intravenous dosing in mouse
# Type: in vivo
# recordedConditions: in vivo, 0.4 mg/kg, read-out: CL
Starred links: 1 amine or outer side, 2 acyl side, 3 side chain; linkers in the order of their positions; H or OH if unused. Positions of bridges follow the written chain, without caps; N, C: chain ends. Non-standard residues stand in square brackets, D forms with d. Residues, ends and D or L forms follow the SMILES beside them. *: point of attachment. Leu(3R-OH,Nα-propionyl) = CCC(=O)N[C@H](C(=O)*)[C@H](O)C(C)C; X1 = CC(C)[C@@H](O[*:3])[C@H](N[*:1])C(=O)[*:2]; NMeT = CN[C@H](C(=O)O)[C@@H](C)O; dPhLac = O=C(O)[C@H](O)Cc1ccccc1; NMeA = CN[C@@H](C)C(=O)O; NMeDha = C=C(NC)C(=O)O
measure: clearance
Could you give the number and then its unit, please?

*Q* May I ask what clearance has been recorded for C=C1C(=O)N[C@@H](C)C(=O)N(C)[C@@H](C)C(=O)N[C@@H]([C@H](OC(=O)[C@@H](NC(=O)CC)[C@H](O)C(C)C)C(C)C)C(=O)N(C)[C@@H]([C@@H](C)OC)C(=O)O[C@H](C(C)C)[C@H](NC(C)=O)C(=O)O[C@H](Cc2ccccc2)C(=O)N1C [Compound (A1)] (Ac-[X1][dPhLac][NMeDha]A[NMeA][X1](Leu(3R-OH,Nα-propionyl))[NMeT](Me); ester 1-C) ?
*A* 141 mL/min/kg

---

# experiment: PK of Compound (A1) after intravenous dosing in mouse
# Assay type: in vivo
# recordedConditions: in vivo, 0.2 mg/kg
# Source text: Table 5 summarizing all PK values is shown below.
Starred links: 1 amine or outer side, 2 acyl side, 3 side chain; linkers in the order of their positions; H or OH if unused. Positions of bridges follow the written chain, without caps; N, C: chain ends. Non-standard residues stand in square brackets, D forms with d. Residues, ends and D or L forms follow the SMILES beside them. *: point of attachment. Leu(3R-OH,Nα-propionyl) = CCC(=O)N[C@H](C(=O)*)[C@H](O)C(C)C; X1 = CC(C)[C@@H](O[*:3])[C@H](N[*:1])C(=O)[*:2]; NMeT = CN[C@H](C(=O)O)[C@@H](C)O; dPhLac = O=C(O)[C@H](O)Cc1ccccc1; NMeA = CN[C@@H](C)C(=O)O; NMeDha = C=C(NC)C(=O)O
measure: C0 (nM)
Give bare numbers, in nM.

*Q* May I ask what C0 has been recorded for C=C1C(=O)N[C@@H](C)C(=O)N(C)[C@@H](C)C(=O)N[C@@H]([C@H](OC(=O)[C@@H](NC(=O)CC)[C@H](O)C(C)C)C(C)C)C(=O)N(C)[C@@H]([C@@H](C)OC)C(=O)O[C@H](C(C)C)[C@H](NC(C)=O)C(=O)O[C@H](Cc2ccccc2)C(=O)N1C [Compound (A1)] (Ac-[X1][dPhLac][NMeDha]A[NMeA][X1](Leu(3R-OH,Nα-propionyl))[NMeT](Me); ester 1-C) ?
*A* 43
